Target: KRas wild type (Homo sapiens (Human), UniProt P01116)
Sequence (P01116-2 other isoform, or with tags, fused parts or gaps): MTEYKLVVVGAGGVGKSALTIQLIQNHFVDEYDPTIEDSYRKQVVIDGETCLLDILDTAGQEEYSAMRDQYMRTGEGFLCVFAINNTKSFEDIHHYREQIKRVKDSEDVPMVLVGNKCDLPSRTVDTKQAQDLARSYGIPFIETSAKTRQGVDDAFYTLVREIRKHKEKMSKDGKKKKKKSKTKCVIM
Test: Ras GTP binding domain inhibition assay (labeled GTP)
Conditions: 20 μM; read-out: KRas wild type, % Inh.
measured_endpoint: inhibition at 20 µM

O=c1nc(-c2ccccn2)[nH]c2c1CCC2 [drawing 2591] | 25 to 50%
COc1ccc(CCC(=O)N2CCCc3c(O)nc(-c4ccccn4)nc32)cc1 [drawing 2640] | 25 to 50%
O=C(Nc1nnc(-c2ccccn2)[nH]1)C1CC(=O)N(Cc2cccc(C(F)(F)F)c2)C1 (stereo not drawn) [drawing 2547] | 25 to 50%
Cc1cccc(CN(Cc2ccccn2)Cc2nccn2C)c1 [drawing 2613] | 25 to 50%
CS(=O)(=O)N1CCCc2cc(C(=O)Nc3nnc(-c4ccccn4)[nH]3)ccc21 [drawing 2561] | 51 to 75%
O=C(Nc1nc(-c2ccccn2)cs1)c1ccncc1 [drawing 2578] | 51 to 75%
